These data points were gathered from the supplement of paper PMC10567573.

B1: ANKRD40 (parent)
chain: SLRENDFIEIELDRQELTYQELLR

Variants of: B1
Experiment: protein stability index of a GFP-peptide fusion (GPS, HEK-293T) (PSI 1-6); higher = more stable;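 note: lentivirally expressed fusions sorted by FACS into six bins by GFP to DsRed ratio, PSI derived from sequencing read proportions per bin multiplied by bin number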
Conditions: c terminus: a fixed tail appended
quantity kind: protein stability index

Q: protein stability index for E16I ?
Ans: 2.47

Q: # protein stability index lookup, item Y19N
Ans: 4.22

Q: Fill in: protein stability index of E16T is ___
Ans: 2.76

Q: Fill in: protein stability index of I8K is ___
Ans: 4.02

Q: protein stability index for F7P ?
Ans: 4.05

Q: For the variant shown here, I10A , give the reported protein stability index.
Ans: 4.02

Q: Find the recorded protein stability index belonging to S1N and report it.
Ans: 3.31

Q: Look at this variant and give its reported protein stability index. I10D
Ans: 4.12

Q: I have this variant here, Q20A , and I need its recorded protein stability index.
Ans: 2.72

Q: Reported protein stability index, variant L17K : ____
Ans: 3.61

Q: Suppose we examine the variant N5V ; what protein stability index value has been reported?
Ans: 2.4

Q: Recorded protein stability index of L12V , please.
Ans: 3.54

Q: Query: protein stability index; subject: R24M
Ans: 2.52

Q: // query protein stability index value for entry I10N
Ans: 3.75

Q: Report protein stability index for D13Y please.
Ans: 1.87

Q: Endpoint output: protein stability index of F7Y . Value?
Ans: 3.54

Q: Given the variant L2H , what is its reported protein stability index?
Ans: 3.01

Q: Query: protein stability index; subject: L22G
Ans: 3.57

Q: Item E16Y has what recorded protein stability index?
Ans: 2.15

Q: # lookup: protein stability index of I8T
Ans: 4.23

Q: // returns reported protein stability index for input D6E
Ans: 2.97

Q: I would be grateful if you could share the reported protein stability index for Q20L .
Ans: 2.04

Q: Given Y19S , state its recorded protein stability index.
Ans: 3.79

Q: protein stability index lookup needed for Q20S , thanks.
Ans: 3.3

Q: For R3F , what is its reported protein stability index?
Ans: 2.37

Q: State the recorded protein stability index for this entry: L22I
Ans: 2.53

Q: Which protein stability index is listed for L17V ?
Ans: 2.9

Q: Given D13K , state its recorded protein stability index.
Ans: 2.55

Q: Field request: protein stability index | item: L2Q
Ans: 3.48

Q: Quick one: protein stability index of Y19D ?
Ans: 4.59

Q: Suppose we examine the variant R3N ; what protein stability index value has been reported?
Ans: 3.06

Q: Requested field: protein stability index. Item: R3S
Ans: 3.54

Q: Please report the recorded protein stability index for L12Q .
Ans: 4.13

Q: I am curious: what protein stability index value has been reported for E16S ?
Ans: 3.48

Q: Look up protein stability index: L22R
Ans: 3.74

Q: State the recorded protein stability index for this entry: D6H
Ans: 2.57

Q: Entry under review: E11P . Reported protein stability index?
Ans: 3.75

Q: Query (variant): Y19W ; field requested: protein stability index
Ans: 2.61

Q: For Y19T , what is its reported protein stability index?
Ans: 3.5

Q: Endpoint output: protein stability index of L23G . Value?
Ans: 3.48

Q: Given the variant R24P , what is its reported protein stability index?
Ans: 3.06

Q: Any idea what protein stability index was measured for E21G ?
Ans: 2.67

Q: Quick check: protein stability index of S1H ?
Ans: 3.26

Q: What does the record list as protein stability index for F7W ?
Ans: 3.03

Q: Could you tell me which protein stability index is on file for E4C ?
Ans: 2.16

Q: Look at this variant and give its reported protein stability index. T18G
Ans: 3.53
